Measured pH by item
- testSummary: Solubility testing in water, SGF, FaSSIF, FeSSIF at 37° C.
- Format: physicochemical
- conditionSet: pH of sample in FaSSIF (pH of media 6.5), 0.5 h
- Description: About 15 mg of sample was weighed into each sample vial and then 3.0 mL of water, simulated gastric fluid (SGF), Fasted State Simulated Intestinal Fluid (FaSSIF) or Fed State Simulated Intestinal Fluid (FeSSIF) media was added. Samples were prepared in triplicate for each media. The suspensions were kept shaking at 37° C. for up to 24 h. At 0.5, 2 and 24 h, suspensions were filtered and the filtrate was analyzed by HPLC.
Where a name gives a salt, the structure may show the parent alone.
Response field accepts a number only; no unit should be typed.

Completed entries (count: 3):
| compound | outcomeMeasure | value |
| --- | --- | --- |
| NCc1ccc(C(=O)Nc2ccncc2F)cc1-c1cccc(C(=O)Nc2ccc(SC[C@H]3CCOC3=O)cc2)c1 (stereo in doubt) [HCl salt Form I] | pH | 6.4 |
| NCc1ccc(C(=O)Nc2ccncc2F)cc1-c1cccc(C(=O)Nc2ccc(SC[C@H]3CCOC3=O)cc2)c1 [Succinate Form I] | pH | 5.7 |
| NCc1ccc(C(=O)Nc2ccncc2F)cc1-c1cccc(C(=O)Nc2ccc(SC[C@H]3CCOC3=O)cc2)c1 [HCl salt Form II] | pH | 6.4 |

Here is the next item to consider.
## Input // query pH value for entry NCc1ccc(C(=O)Nc2ccncc2F)cc1-c1cccc(C(=O)Nc2ccc(SC[C@H]3CCOC3=O)cc2)c1 [Freebase Form I]
## Output 6.4
